Give measured MIC for each item. Keep answers brief.
test system: Mycoplasma genitalium; experiment: Antibacterial activity against Mycoplasma genitalium M6286 by broth dilution method; type: functional; conditions: Mycoplasmoides genitalium
Give bare numbers, in µg/mL.

Some entries whose results are on file:
compound: C[C@H]1COc2c(N3CCN(C)CC3)c(F)cc3c(=O)c(C(=O)O)cn1c23.C[C@H]1COc2c(N3CCN(C)CC3)c(F)cc3c(=O)c(C(=O)O)cn1c23.O [LEVOFLOXACIN]
MIC, µg/mL: 0.125
--
compound: CN(C)[C@@H]1C(O)=C(C(N)=O)C(=O)[C@@]2(O)C(O)=C3C(=O)c4c(O)cccc4[C@@](C)(O)[C@H]3C[C@@H]12 [TETRACYCLINE]
MIC, µg/mL: 0.063
--
compound: COc1c(N2C[C@@H]3CCCN[C@@H]3C2)c(F)cc2c(=O)c(C(=O)O)cn(C3CC3)c12 [MOXIFLOXACIN]
MIC, µg/mL: 0.016
--
compound: CCn1cc(C(=O)O)c(=O)c2cc(F)c(N3CCNCC3)cc21 [NORFLOXACIN]
MIC, µg/mL: 0.001
--
compound: CN(C)c1ccc(O)c2c1C[C@H]1C[C@H]3[C@H](N(C)C)C(O)=C(C(N)=O)C(=O)[C@@]3(O)C(O)=C1C2=O [MINOCYCLINE]
MIC, µg/mL: 0.063
--
compound: COc1c(N2CCNC(C)C2)c(F)cc2c(=O)c(C(=O)O)cn(C3CC3)c12 (centres undefined) [GATIFLOXACIN]
MIC, µg/mL: 0.031

For each listed entry, give its MIC.
1. C[C@H]1c2cccc(O)c2C(=O)C2=C(O)[C@]3(O)C(=O)C(C(N)=O)=C(O)[C@@H](N(C)C)[C@@H]3[C@@H](O)[C@@H]21.O [DOXYCYCLINE]
2. O=C(O)c1cn(C2CC2)c2cc(N3CCNCC3)c(F)cc2c1=O [CIPROFLOXACIN]
3. N[C@@H]1CN(c2c(F)cc3c(=O)c(C(=O)O)cn([C@@H]4C[C@@H]4F)c3c2Cl)CC12CC2 [SITAFLOXACIN ANHYDROUS]

Output:
1. 0.063
2. 0.063
3. 0.008
